tested on: Candida albicans; test: Antifungal activity against Candida albicans M61 grown as planktonic cell assessed as minimum drug level required to decrease turbidity by 50% after 24 hrs by CLSI M27-A2 method; format: functional; conditions: M61, 24 h
*1 amine or outer side, *2 acyl side, *3 side chain or, on linkers, in order; H or OH if unused. Where a SMILES comes first, the peptide text is derived from it. Bridges are numbered along the chain shown (N, C = ends). [ ]: non-standard residue; d: D form. The star is where a group is joined. pTerphenylCO(4''-OnC5H11) = CCCCCOc1ccc(-c2ccc(-c3ccc(C(=O)*)cc3)cc2)cc1; Orn(4R-OH,5R-OH) = O=C([C@H](C[C@@H](O)[C@@H](O)N[*:3])N[*:1])[*:2]; hTyr(3S-OH,4S-OH) = N[C@H](C(=O)O)[C@H](O)[C@@H](O)c1ccc(O)cc1; Pro(3S-OH,4S-Me) = C[C@H]1CN[C@H](C(=O)O)[C@H]1O; Hyp = O=C(O)[C@@H]1C[C@@H](O)CN1
In this section, each of the compounds is paired with its reported MIC.
observation.type: MIC

compound=CC[C@@H]([C@H](C)O)n1ncn(-c2ccc(N3CCN(c4ccc(OC[C@@H]5CO[C@@](Cn6cncn6)(c6ccc(F)cc6F)C5)cc4)CC3)cc2)c1=O result_value="≤ 0.001 µg/mL"
compound="CCCCCOc1ccc(-c2ccc(-c3ccc(C(=O)N[C@H]4C[C@@H](O)[C@@H](O)NC(=O)[C@@H]5[C@@H](O)[C@@H](C)CN5C(=O)[C@H]([C@@H](C)O)NC(=O)[C@H]([C@H](O)[C@@H](O)c5ccc(O)cc5)NC(=O)[C@@H]5C[C@@H](O)CN5C(=O)[C@H]([C@@H](C)O)NC4=O)cc3)cc2)cc1 [ANIDULAFUNGIN] ({pTerphenylCO(4''-OnC5H11)}-[Orn(4R-OH,5R-OH)]T[Hyp][hTyr(3S-OH,4S-OH)]T[Pro(3S-OH,4S-Me)]; lactam 1-C)" result_value="0.003 µg/mL"
compound=C[C@@H](c1ncncc1F)[C@](O)(Cn1cncn1)c1ccc(F)cc1F result_value="0.01 µg/mL"
compound=CC[C@H](C)C[C@H](C)CCCCCCCCC(=O)N[C@H]1C[C@@H](O)[C@@H](NCCN)NC(=O)[C@@H]2[C@@H](O)CCN2C(=O)[C@H]([C@H](O)CCN)NC(=O)[C@H]([C@H](O)[C@@H](O)c2ccc(O)cc2)NC(=O)[C@@H]2C[C@@H](O)CN2C(=O)[C@H]([C@@H](C)O)NC1=O result_value="0.06 µg/mL"
